- testTarget: CMV polymerase (Human cytomegalovirus, UniProt P08546)
- Construct: made in house; host or cells: recombinant baculovirus-infected SF-9 cells
- Sequence (P08546 whole entry): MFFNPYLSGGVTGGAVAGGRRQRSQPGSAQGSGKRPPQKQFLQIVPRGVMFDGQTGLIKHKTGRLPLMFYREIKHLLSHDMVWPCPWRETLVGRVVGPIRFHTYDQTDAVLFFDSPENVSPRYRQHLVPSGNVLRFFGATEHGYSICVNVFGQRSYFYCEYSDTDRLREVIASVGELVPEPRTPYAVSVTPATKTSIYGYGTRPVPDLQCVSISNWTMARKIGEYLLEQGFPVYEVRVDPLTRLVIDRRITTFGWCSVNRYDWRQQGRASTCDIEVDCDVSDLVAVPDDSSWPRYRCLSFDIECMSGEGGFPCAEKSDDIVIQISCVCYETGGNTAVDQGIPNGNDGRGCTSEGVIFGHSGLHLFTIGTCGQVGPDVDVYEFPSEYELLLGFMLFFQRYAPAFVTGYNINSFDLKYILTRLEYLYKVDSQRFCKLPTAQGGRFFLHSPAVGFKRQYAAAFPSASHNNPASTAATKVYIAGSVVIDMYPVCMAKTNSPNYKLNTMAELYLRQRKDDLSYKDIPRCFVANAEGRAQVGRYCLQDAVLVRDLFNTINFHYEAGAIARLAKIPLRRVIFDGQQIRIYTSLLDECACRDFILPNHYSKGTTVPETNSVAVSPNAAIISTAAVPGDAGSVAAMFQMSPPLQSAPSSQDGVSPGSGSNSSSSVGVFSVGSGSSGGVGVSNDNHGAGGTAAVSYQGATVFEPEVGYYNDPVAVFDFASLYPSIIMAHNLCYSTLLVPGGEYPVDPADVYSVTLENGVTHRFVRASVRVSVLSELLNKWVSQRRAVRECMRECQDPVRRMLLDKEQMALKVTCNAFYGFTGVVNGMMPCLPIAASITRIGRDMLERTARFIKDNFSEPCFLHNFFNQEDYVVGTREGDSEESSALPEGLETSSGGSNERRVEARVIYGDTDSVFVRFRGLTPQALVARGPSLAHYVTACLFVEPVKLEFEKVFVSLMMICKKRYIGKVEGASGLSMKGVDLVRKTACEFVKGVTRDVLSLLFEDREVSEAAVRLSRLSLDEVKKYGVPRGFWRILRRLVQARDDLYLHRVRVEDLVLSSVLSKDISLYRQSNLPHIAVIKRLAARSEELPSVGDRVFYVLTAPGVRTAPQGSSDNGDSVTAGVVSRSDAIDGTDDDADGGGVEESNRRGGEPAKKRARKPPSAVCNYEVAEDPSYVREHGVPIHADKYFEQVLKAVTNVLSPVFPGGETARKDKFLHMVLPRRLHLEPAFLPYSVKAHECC
- test: modified version of the HCMV polymerase assay (100% DMSO dilution, DTT, different enzyme lot)
- Assay type: biochemical
- measurementContext: Table 6; read-out: IC50
propertyMeasured: pIC50
Here pIC50 is given on a logarithmic scale as minus log10 of the concentration in mol/L.

Response field pIC50 (CMV polymerase (Human cytomegalovirus, UniProt P08546)) for item Cc1ccc2c(Cl)cc(S(=O)(=O)NCCc3ccc(Cl)cc3)c(O)c2n1 [Example 60] : 4.24

Hey, CMV polymerase (Human cytomegalovirus, UniProt P08546) data for Cc1ccc2c(Cl)cc(S(=O)(=O)NCCc3c[nH]c4ccccc34)c(O)c2n1 [Example 64] : pIC50 came out at 4.53

Reading of pIC50 for O=S(=O)(NCc1ccccc1)c1cc(F)c2cccnc2c1O [Example 67] with CMV polymerase (Human cytomegalovirus, UniProt P08546): 4.63

Summary line: O=S(=O)(NCCSc1ccccc1)c1cc(Cl)c2ccc(/C=C/c3ccccc3)nc2c1O [Example 63] , CMV polymerase (Human cytomegalovirus, UniProt P08546), reported pIC50 = 4.94

// data source = patent US6500842B1
